Data origin: PubChem BioAssay (NCI)

tested on: PC-3 prostate; assay: NCI tumour cell line growth inhibition, 48 h
Reported TGI is given for each of the following compounds.

Some solved entries appear below for comparison.
{"compound": "O=C1CC2(CCC(O)(c3ccc4ccccc4c3)C(C(=O)c3ccc4ccccc4c3)C2)C(=O)c2ccccc2N1 (stereo not given)", "tested.on": "PC-3 prostate", "TGI": "> 100 µM"}
{"compound": "C[C@H](CCC(=O)O)[C@H]1CC[C@H]2[C@@H]3C(=O)C[C@@H]4C[C@H](O)CC[C@]4(C)[C@H]3C[C@H](O)[C@]12C", "tested.on": "PC-3 prostate", "TGI": "> 100 µM"}
{"compound": "O=C(Nc1cccc(C(F)(F)F)c1)c1ccc(NC2=C(Cl)C(=O)N(Cc3ccc(Cl)cc3Cl)C2=O)cc1", "tested.on": "PC-3 prostate", "TGI": "15.2 µM"}
{"compound": "O=C(O)[C@H]1CCCN1CP(=O)(O)CN1CCC[C@@H]1C(=O)O", "tested.on": "PC-3 prostate", "TGI": "> 100 µM"}

Can you look up the measured TGI of "CSC1=N/C(=C\c2ccc(C)cc2)C(=O)N1CN1CCCCC1" for me? > 100 µM

====

test system: HL-60(TB) leukemia; experiment: NCI tumour cell line growth inhibition, 48 h
Quick list: GI50 per entry.

Worked examples, 3 molecules total:
{"molecule": "CC(NCCC(c1ccccc1)c1ccccc1)c1ccccc1 (stereo unspecified)", "tested.on": "HL-60(TB) leukemia", "endpoint.value": "2.13 µM"}
{"molecule": "CN(C)C1CCN(C(=O)c2ccc(NC(=O)Nc3ccc(-c4nc(N5CCOCC5)c5cccn5n4)cc3)cc2)CC1", "tested.on": "HL-60(TB) leukemia", "endpoint.value": "0.105 µM"}
{"molecule": "CC(=O)Nc1ccc(-c2csc(Nc3cccc(-c4csc(C)n4)c3)n2)cc1", "tested.on": "HL-60(TB) leukemia", "endpoint.value": "0.609 µM"}

# GI50 lookup, item "S=c1[nH]c(=S)c2cc3ccccc3nc2[nH]1" 38 µM

Entry under review: "NC(N)=N/N=C/c1c(Cl)cccc1Cl" . Reported GI50? 21.8 µM

Requested read-out: GI50. Entry: "CC(C)(/C=C(\C#N)C(=O)N1CCC[C@@H](n2nc(-c3ccc(Oc4ccccc4)cc3F)c3c(N)ncnc32)C1)N1CCN(C2COC2)CC1" 5.28 µM

====

This listing pairs compounds with measured TGI.
system: COLO 205 colon; assay: NCI tumour cell line growth inhibition, 48 h

{"compound": "O=C(Cc1ccc(F)c(Cl)c1)Nc1cc(C2(C(F)(F)F)CC2)nn1CC1CCCCC1", "tested.on": "COLO 205 colon", "TGI": "5.41 µM"}

Need TGI, item CN1CCOC1c1ccccc1O (configuration not stated) > 100 µM

Quick one: TGI for "S=c1[nH]c(=S)c2cc3ccccc3nc2[nH]1" ? > 100 µM

Returns the measured TGI for the input compound. Input: C=CCCCCC1CCC2CCC(CCCCC=C)N12 (configuration not stated) 32.5 µM

Query (compound): "COC(=O)c1c2c(c(C)[n+]([O-])c1C)C(=O)C=C(NCc1ccc(F)cc1)C2=O" ; field requested: TGI 0.97 µM

====

test system: TK-10 renal; experiment: NCI tumour cell line growth inhibition, 48 h
TGI values, listed per item

The cases that follow already have their TGI on record.
{"compound": "c1ccc2c(OCCSCCCCCCCCCCSCCOc3cccc4ccccc34)cccc2c1", "TGI": "> 100 µM"}
{"compound": "OC[C@H]1O[C@@H]2O[C@@](COCc3ccccc3)([C@H](OCc3ccccc3)[C@H]2O)[C@@H]1OCc1ccccc1", "TGI": "33.3 µM"}
{"compound": "O=[N+]([O-])C(=C(Nc1cccc2cccnc12)Nc1cccc2cccnc12)C(Cl)=C(Cl)Cl", "TGI": "> 100 µM"}
{"compound": "NC(N)=NCCCC(=O)O", "TGI": "> 100 µM"}
{"compound": "CCOC(=O)N[C@H]1CCc2cc(OC)c(OC)c(OC)c2-c2ccc(SC)c(=O)cc21", "TGI": "> 100 µM"}
{"compound": "CCN1CCN(c2cc(C)c3cc(NC(=O)c4ccc(OC)c(OC)c4)ccc3n2)CC1", "TGI": "98.5 µM"}
{"compound": "COC(=O)/C(=C/c1ccc(OC)cc1)C(C(=O)O)=C1CCCC1", "TGI": "> 100 µM"}
{"compound": "C[C@@H]1C[C@@H]([C@@H](CC2CC(=O)NC(=O)C2)OC(=O)CC(=O)c2ccccc2)C(=O)[C@@H](C)C1", "TGI": "> 24.3 µM"}

TGI lookup needed for "CC1=Cc2cccc(C)c2C(=O)C1=O" , thanks. 4.75 µM

Field request: TGI | item: "CC(=NNC(=S)Nc1ccccc1)c1cccc(C(C)=NNC(=S)Nc2ccccc2)n1" > 100 µM

Sample Cc1nn(-c2ccccc2)c2c1C(c1cc3ccccc3nc1Cl)NC(=O)N2 (stereo not drawn) — what was its TGI? > 100 µM

Request the reported TGI associated with "CCOc1cc(/C=C2/C(C)=NN(c3cccc(Cl)c3)/C2=N/c2nc3ccccc3s2)ccc1O" > 100 µM

====

test system: A549 NSCLC; experiment: NCI tumour cell line growth inhibition, 48 h
Entries and their TGI
// return numeric value only (unit: µM, not printed)

Answered examples (2):
{"sample.smiles": "O=C1N=C2Sc3ccc4ccccc4c3N2C1=O", "tested.on": "A549 NSCLC", "TGI, µM": 41.2}
{"sample.smiles": "COC(=O)c1c2c(c(C)[n+]([O-])c1C)C(=O)C=C(NCc1ccc(F)cc1)C2=O", "tested.on": "A549 NSCLC", "TGI, µM": 3.15}

We now examine a further compound.
Report TGI for "O=c1oc2ccc(-c3ccc(F)cc3F)cc2c(=O)n1-c1cccc(C(F)(F)F)c1" please. 34.8

====

system: SN12C renal; test: NCI tumour cell line growth inhibition, 48 h
reported.endpoint: TGI

# annotated cases, reported TGI shown
{"compound": "Clc1cc2c(c(CSc3nc4ccccc4n4cccc34)c1)OCOC2", "endpoint.value": "> 100 µM"}
{"compound": "c1ccc2c(OCCSCCCCCCCCCCSCCOc3cccc4ccccc34)cccc2c1", "endpoint.value": "> 100 µM"}
{"compound": "N#CC(C#N)=C1SC(=Nc2ccccc2)C(=Nc2ccccc2)N1c1ccccc1", "endpoint.value": "77.2 µM"}
{"compound": "O=C1CC2(CCC(O)(c3ccc4ccccc4c3)C(C(=O)c3ccc4ccccc4c3)C2)C(=O)c2ccccc2N1 (configuration not stated)", "endpoint.value": "> 100 µM"}
{"compound": "Cc1ccc(C)c(NC(=O)c2cccc([N+](=O)[O-])c2O)c1", "endpoint.value": "> 100 µM"}
{"compound": "COc1cc(N(CCC#N)CCC#N)ccc1/C(N=Nc1ccc(Cl)cc1)=N/NC(=O)c1cc(Br)ccc1O", "endpoint.value": "> 150 mg/L"}
{"compound": "CSC1=N/C(=C\\c2ccc(C)cc2)C(=O)N1CN1CCCCC1", "endpoint.value": "> 100 µM"}
{"compound": "COc1cc(C(=O)N2CCN(C(=O)c3cc(OC)c(OC)c(OC)c3)C2=S)cc(OC)c1OC", "endpoint.value": "35.7 µM"}
{"compound": "CN(C)CCC(/C=C/c1ccccc1)=N\\Nc1ccccc1", "endpoint.value": "11.6 µM"}
{"compound": "CCOC(=O)c1cccc(N=Nc2nc[nH]c2/C=C/C(=O)OC)c1", "endpoint.value": "68.1 µM"}

Consider the compound shown here: Cc1nn(-c2ccccc2)c2c1C(c1cc3ccccc3nc1Cl)NC(=O)N2 (configuration not stated) What is its recorded TGI? 67.5 µM

Fill in the blank: the reported TGI of "COc1ccc(-c2ccc(=O)oc2C#Cc2cc(OC)c(OC)c(OC)c2)cc1O" is ____. > 100 µM

Fill blank: measured TGI of the compound CCN1CN(c2ccccc2)C2(CCN(CC3COc4ccccc4O3)CC2)C1=O (configuration not stated) is ____. > 100 µM

So what does the record say about TGI for "CC1(C)OC[C@@H](O)[C@H](C#N)CO1" ? > 100 µM

Which value of TGI has been reported for "COC(=O)c1ccc2c(c1)C(=O)c1c-2n(CCCN=[N+]=[N-])c(=O)c2cc(OC)c(OC)cc12" in the records? > 100 µM

Endpoint output: TGI of Cc1cccc(C)c1NC(=O)C(Cc1c[nH]c2ccccc12)NC(=O)OCc1ccccc1 (configuration not stated) . Value? 80.7 µM

Recorded TGI of BrC(=C(c1ccc(OC2CCCCO2)cc1)c1ccc(OC2CCCCO2)cc1)c1ccccc1 (configuration not stated) , please. > 100 µM

Fill in the blank: the reported TGI of "O=C(O)CN1CCN2CCCCCN(CC1)CCN(CC(=O)O)CC2" is ____. > 100 µM

Name the reported TGI value associated with the compound COc1ccc(CCN(C)C2CCC(C#N)(c3ccc(OC)c(OC)c3)CC2)cc1OC (configuration not stated) > 100 µM

Using the record for "On1c(-c2ccccc2)c(-c2ccccc2N2CCCC2)c2ccccc21" , report its TGI. > 100 µM

Entry C=C1C(=O)CC2C1CC(=O)/C(C)=C/CCC(C)(O)C2O (configuration not stated) has what TGI? 5.32 µM

Can you share its TGI? I mean this compound: "O=C(/C=C/c1ccc[nH]1)c1ccc(-n2ccc(C(F)(F)F)n2)cc1" > 100 µM

Sample "CN1CCN(c2ccc(Nc3cc(-c4cccc(-n5ccc6cc(C7CC7)cc(F)c6c5=O)c4CO)cn(C)c3=O)nc2)CC1" — what was its TGI? 13.9 µM

Item under review: CC(C)(C)[Si](C)(C)OCC1OC(n2ccc(=O)[nH]c2=O)C(O[Si](C)(C)C(C)(C)C)/C1=C/C#N (configuration not stated) . Reported TGI? 32.5 µM

Returns the measured TGI for the input compound. Input: "Cn1c(SCc2ccc(F)cc2)nnc1C12CC3CC(CC(C3)C1)C2" > 100 µM

Item COc1ccc(C2OC(c3ccncc3)=NN2C)cc1F (configuration not stated) has what recorded TGI? > 100 µM

Entry CC(NC(=O)Cc1ccccc1)NC(=O)C(C)C(=O)Nc1ccccc1 (configuration not stated) has what TGI? > 100 µM

Consider the compound shown here: "COc1ccc(OCC(=O)O)c2c1CCCC2=O" What is its recorded TGI? > 100 µM

Quick one: TGI for "O=C(/C=C/c1ccccc1)Oc1ccc(C(=O)/C=C/c2ccccc2)cc1" ? 15.2 µM

Query (compound): "C/C(N=NC(=S)N1CC2CCC(CC2)C1)=C1\C=CC=CN1O" ; field requested: TGI > 100 µM

Sample "CCNC(=S)NNC(=O)C12CC3CC(CC(C3)C1)C2" — what was its TGI? > 100 µM

Dear colleague, I am looking for the recorded TGI of the following compound: COC1C(OC(=S)Nc2ccccc2)c2ccccc2N1C(C)=O (configuration not stated) > 100 µM
